Test system: OVCAR-8 ovarian
Test name: NCI tumour cell line growth inhibition, 48 h
Property name: TGI

Solved entries (count: 5):
1) CCCCN(CC)CC(C(C)=O)c1c(O)c2ccccc2oc1=O (stereo not given) ... > 100 µM
2) COC(=O)C1=Nc2c(C)nn(-c3ccccc3)c2N=C(c2ccccc2)C1 ... > 10 µM
3) Cc1c(C(=O)O)oc2ccc([N+](=O)[O-])cc12 ... > 100 µM
4) CC12CCCC3(CC(=O)C(C)(C)C3C(=O)C1)C2 (stereo not given) ... > 100 µM
5) CC(C(=O)O)C(C)(O)C(=O)O (stereo not given) ... > 100 µM

Item C=C1C(=O)O[C@H]2[C@H]1CC/C(C=Nc1c(N)cc(C(F)(F)F)cc1Br)=C\CC[C@@]1(C)O[C@@H]21 with OVCAR-8 ovarian - TGI?
9.03 µM

Item CC(=O)OCC1OC(N2C(=O)C(=O)c3ccccc32)C(OC(C)=O)C(OC(C)=O)C1OC(C)=O (stereo not given) with OVCAR-8 ovarian - TGI?
> 100 µM

Item CC(=O)OC(Cn1cncn1)(Cn1cncn1)c1ccc(Cl)cc1Cl with OVCAR-8 ovarian - TGI?
> 100 µM

Item CCCCn1c(-c2ccc(C(=O)O/N=C(\N)c3ccc4c(c3)OCO4)cc2)nc(-c2ccccc2)c1-c1ccccc1 with OVCAR-8 ovarian - TGI?
> 100 µM

Item CC(C)(C)c1cc(C(=O)/C=C/c2ccc3c(c2)OCO3)cc(C(C)(C)C)c1O with OVCAR-8 ovarian - TGI?
> 100 µM

* * *

System: HOP-92 NSCLC
Test name: NCI tumour cell line growth inhibition, 48 h; in the data active = GI50 below about 0.43 µM; inactive = the rest
Log the outcome using a class from active, inactive

Study these solved cases before continuing.
1) O=C1OCC2=C1C(c1ccccc1)c1cc3c(cc1N2CCO)OCO3 (centres undefined) ... inactive
2) O=C1CCCCN1CCCCC#Cc1cccc(C#Cc2cccnc2)c1 ... inactive
3) O=S(=O)(NCCCNc1nccc(-c2c(-c3ccc(F)cc3)nc3sccn23)n1)c1ccc2ccccc2c1 ... inactive
4) Cn1cc(C2=C(c3cn(C4CCN(Cc5ccccn5)CC4)c4ccccc34)C(=O)NC2=O)c2ccccc21 ... inactive
5) CC(C)(C)c1cc(C=C(C#N)C#N)cc(C(C)(C)C)c1O ... active

Outcome? CCNC(=O)c1noc(-c2cc(C(C)C)c(O)cc2O)c1-c1ccc(CN2CCOCC2)cc1
active

Outcome? CCC1=CC2CN(C1)Cc1c([nH]c3ccccc13)[C@@](C(=O)OC)(c1cc3c(cc1OC)N(C)[C@H]1[C@@](O)(C(=O)OC)[C@H](OC(C)=O)[C@]4(CC)C=CCN5CC[C@]31[C@@H]54)C2 (some centres undefined)
inactive

Outcome? CN(C)CC1CCC(CN(C)C)C1=O (centres undefined)
inactive

Outcome? c1ccc2[nH]c(-c3ccc(Nc4nc(N5CCCCC5)nc(N5CCOCC5)n4)cc3)nc2c1
inactive

* * *

Test system: SK-MEL-28 melanoma
Test name: NCI tumour cell line growth inhibition, 48 h
Property name: TGI

Solved entries (count: 9):
1) O=c1cc(-c2ccccc2)oc2c(-c3cc(Cl)cc4c(=O)cc(-c5ccccc5)oc34)cc(Cl)cc12 ... > 100 µM
2) CSc1nnc(COc2ccc(Cl)cc2)o1 ... > 100 µM
3) COC(=O)c1cc(C#N)[nH]c1-c1cc(Br)cs1 ... 36.5 µM
4) Cc1ccccc1NC(=O)C1C(=O)N(c2ccccc2C)C(=O)/C1=N\NC(N)=S (stereo not given) ... > 100 µM
5) COC(=O)C1(C(=O)OC)CC(=O)c2cc3c(cc2-c2c(cc(OC)c(OC)c2OC)C1)OCO3 ... > 211 µM
6) O=c1cc(/C=C/c2ccccc2)[nH]c2cc3c(cc12)OCO3 ... 34.9 µM
7) COc1cc2c(cc1Cc1c(F)cccc1Cl)nc(-c1c(F)cccc1Cl)n2Cc1c(F)cccc1Cl ... > 100 µM
8) CC(C)(C)OC(=O)NCCCCCCCn1c2c(c3ccccc3c1=O)C(=O)c1ccccc1-2 ... > 100 µM
9) N#Cc1nc(C2CCC2)oc1N ... > 100 µM

--- query ---
Which TGI value belongs to CC(=O)OC(Cn1cncn1)(Cn1cncn1)c1ccc(Cl)cc1Cl ?
> 100 µM

// provenance: PubChem BioAssay (NCI)
